Experiment: Solubility of C1100 Form I in pharmaceutically-acceptable solvents at 20° C. (HPLC of saturated solutions)
Assay type: physicochemical
Conditions: organic solvent or mixture, thermodynamic from solid, Form I polymorph, solvent Toluene, 4 hours equilibration
Experimental: In each case, about 25 mg of drug substance was allowed to equilibrate with 250 μL of solvent over 4 hours. The resulting saturated solutions were filtered and analysed by HPLC.

COMPOUND: CCS(=O)(=O)c1ccc2oc(-c3ccc4ccccc4c3)nc2c1 [C1100]
UNIT_ABBREVIATION: µg/mL
solubility at 4 h: 8500

---

experiment: Solubility in water and corn oil; type: physicochemical; details: oil or lipid; corn oil; very slightly soluble; read-out: Solubility in corn oil
READOUT_LABEL: solubility (µg/mL)

COMPOUND: CCS(=O)(=O)c1ccc2oc(-c3ccc4ccccc4c3)nc2c1 [C1100]
QUANTITATIVE_RESULT: 600

---

assay: Solubility of C1100 Form I in pharmaceutically-acceptable solvents at 20° C. (HPLC of saturated solutions); format: physicochemical; conditions: organic solvent or mixture, thermodynamic from solid, Form I polymorph, solvent 2-butanol, 4 hours equilibration

COMPOUND: CCS(=O)(=O)c1ccc2oc(-c3ccc4ccccc4c3)nc2c1 [C1100]
solubility at 4 h, µg/mL: 850

---

assay: Solubility of C1100 Form I in pharmaceutically-acceptable solvents at 20° C. (HPLC of saturated solutions); format: physicochemical; conditions: organic solvent or mixture, thermodynamic from solid, Form I polymorph, solvent 1,4-dioxane, 4 hours equilibration

SMILES_DATA: CCS(=O)(=O)c1ccc2oc(-c3ccc4ccccc4c3)nc2c1
solubility at 4 h / mg/mL: 28.4

---

assay: Solubility in water and corn oil; assay type: physicochemical; conditions: water; practically insoluble; read-out: Solubility in water
READOUT_LABEL: solubility

SMILES_DATA: CCS(=O)(=O)c1ccc2oc(-c3ccc4ccccc4c3)nc2c1
RESULT: < 1 µg/mL

---

Experiment: Water/octanol partition coefficient (ProfilerLDA isocratic chromatography)
Format: physicochemical
Details: octanol/water (octanol-coated column), pH 7.4; read-out: log D (water/octanol partition coefficient)
Method: The water/octanol partition coefficient was determined with a ProfilerLDA isocratic chromatography system, using an octanol-coated column with octanol-saturated mobile phases.
READOUT_LABEL: chromatographic logD

MOLECULE: CCS(=O)(=O)c1ccc2oc(-c3ccc4ccccc4c3)nc2c1 [C1100]
READOUT_LABEL: chromatographic logD
RESULT: 3.99

---

test: Solubility of C1100 Form I in pharmaceutically-acceptable solvents at 20° C. (HPLC of saturated solutions); type: physicochemical; details: organic solvent or mixture, thermodynamic from solid, Form I polymorph, solvent Ethyl acetate, 4 hours equilibration

SMILES_DATA: CCS(=O)(=O)c1ccc2oc(-c3ccc4ccccc4c3)nc2c1
UNIT_ABBREVIATION: µg/mL
solubility at 4 h: 8360

---

assay: Solubility of C1100 Form I in pharmaceutically-acceptable solvents at 20° C. (HPLC of saturated solutions); assay type: physicochemical; details: organic solvent or mixture, thermodynamic from solid, Form I polymorph, solvent 2-propanol, 4 hours equilibration

SMILES_DATA: CCS(=O)(=O)c1ccc2oc(-c3ccc4ccccc4c3)nc2c1
solubility at 4 h: 470 µg/mL

---

assay: Solubility of C1100 Form I in pharmaceutically-acceptable solvents at 20° C. (HPLC of saturated solutions); assay type: physicochemical; details: organic solvent or mixture, thermodynamic from solid, Form I polymorph, solvent Dimethylsulfoxide, 4 hours equilibration

SMILES_DATA: CCS(=O)(=O)c1ccc2oc(-c3ccc4ccccc4c3)nc2c1
solubility at 4 h: 13.2 mg/mL

---

assay: Solubility of C1100 Form I in pharmaceutically-acceptable solvents at 20° C. (HPLC of saturated solutions); assay type: physicochemical; settings: organic solvent or mixture, thermodynamic from solid, Form I polymorph, solvent Tetrahydrofuran, 4 hours equilibration

SMILES_DATA: CCS(=O)(=O)c1ccc2oc(-c3ccc4ccccc4c3)nc2c1
UNIT_ABBREVIATION: mg/mL
solubility at 4 h: 25.9

---

experiment: Solubility of C1100 Form I in pharmaceutically-acceptable solvents at 20° C. (HPLC of saturated solutions); assay type: physicochemical; conditions: organic solvent or mixture, thermodynamic from solid, Form I polymorph, solvent Heptane, 4 hours equilibration

SMILES_DATA: CCS(=O)(=O)c1ccc2oc(-c3ccc4ccccc4c3)nc2c1
UNIT_ABBREVIATION: mg/mL
solubility at 4 h: 10.9

---

experiment: Solubility of C1100 Form I in pharmaceutically-acceptable solvents at 20° C. (HPLC of saturated solutions); format: physicochemical; conditions: organic solvent or mixture, thermodynamic from solid, Form I polymorph, solvent Chloroform, 4 hours equilibration

COMPOUND: CCS(=O)(=O)c1ccc2oc(-c3ccc4ccccc4c3)nc2c1 [C1100]
solubility at 4 h: > 50 mg/mL

---

assay: Solubility of C1100 Form I in pharmaceutically-acceptable solvents at 20° C. (HPLC of saturated solutions); type: physicochemical; conditions: organic solvent or mixture, thermodynamic from solid, Form I polymorph, solvent Acetone, 4 hours equilibration

SMILES_DATA: CCS(=O)(=O)c1ccc2oc(-c3ccc4ccccc4c3)nc2c1
solubility at 4 h, mg/mL: 27.5

---

Test: Solubility of C1100 Form I in pharmaceutically-acceptable solvents at 20° C. (HPLC of saturated solutions)
Format: physicochemical
Conditions: organic solvent or mixture, thermodynamic from solid, Form I polymorph, solvent tert-butyl methyl ether (TBME), 4 hours equilibration
Protocol: In each case, about 25 mg of drug substance was allowed to equilibrate with 250 μL of solvent over 4 hours. The resulting saturated solutions were filtered and analysed by HPLC.

SMILES_DATA: CCS(=O)(=O)c1ccc2oc(-c3ccc4ccccc4c3)nc2c1
solubility at 4 h: 11.7 mg/mL

---

Experiment: Solubility of C1100 Form I in pharmaceutically-acceptable solvents at 20° C. (HPLC of saturated solutions)
Format: physicochemical
Conditions: organic solvent or mixture, thermodynamic from solid, Form I polymorph, solvent 1-propanol, 4 hours equilibration
Description: In each case, about 25 mg of drug substance was allowed to equilibrate with 250 μL of solvent over 4 hours. The resulting saturated solutions were filtered and analysed by HPLC.

SMILES_DATA: CCS(=O)(=O)c1ccc2oc(-c3ccc4ccccc4c3)nc2c1
UNIT_ABBREVIATION: µg/mL
solubility at 4 h: 790
